- TARGET: Aurora kinase B (Homo sapiens)
- Sequence (Q96GD4 whole entry): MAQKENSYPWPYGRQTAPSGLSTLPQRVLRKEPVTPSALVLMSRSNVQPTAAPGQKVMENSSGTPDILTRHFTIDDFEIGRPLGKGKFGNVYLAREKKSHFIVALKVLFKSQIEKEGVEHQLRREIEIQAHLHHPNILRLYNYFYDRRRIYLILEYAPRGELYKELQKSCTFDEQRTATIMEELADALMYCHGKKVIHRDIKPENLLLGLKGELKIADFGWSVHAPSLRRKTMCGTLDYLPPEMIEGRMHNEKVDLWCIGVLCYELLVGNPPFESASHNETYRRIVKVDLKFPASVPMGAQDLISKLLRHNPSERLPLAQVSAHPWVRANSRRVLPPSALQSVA
- ASSAY PROTOCOL: Inhibition of human recombinant full length GST-AURKB using tetra(-LRRASLG) peptide as substrate at 0.1 uM incubated for 20 mins by ATP Kinase Glo assay
- Format: biochemical
- DETAILS: Sf9
PROPERTY LABEL: inhibition (%)
Express your answer in %, writing the number without its unit.

Entry under test: CN(C)c1ccc2c(Oc3ccc(NC(=O)NCc4ccc(C(F)(F)F)nc4)cc3)ncnc2c1 . Its inhibition was 16

Entry under test: COc1ccccc1NC(=O)Nc1ccc(Oc2ncnc3cc(N(C)C)ccc23)cc1 . Its inhibition was 53

Entry under test: CN(C)c1ccc2c(Oc3ccc(NC(=O)Nc4ccc(C(F)(F)F)cc4)cc3)ncnc2c1 . Its inhibition was 37

Entry under test: COc1ccc2c(Oc3ccc(NC(=O)Nc4ccccc4)cc3)ncnc2c1 . Its inhibition was 48

Entry under test: CN(C)c1ccc2c(Oc3ccc(NC(=O)NCCc4ccccc4)cc3)ncnc2c1 . Its inhibition was 35

---

- ASSAY PROTOCOL: Oral bioavailability in Sprague-Dawley rat at 20 to 25 mg/kg measured up to 24 hrs by LC-MS/MS analysis
- Assay type: ADME, organism-based
- DETAILS: in vivo, dose 20-25 mg/kg
Use 7% as the dividing line for bioavailability, with the line itself on the T side and lower values as F.

Has CN(C)c1ccc2c(Oc3ccc(NC(=O)NCc4ccc(C(F)(F)F)nc4)cc3)ncnc2c1 a recorded bioavailability greater than or equal to 7%? T

Has COc1ccc(CNC(=O)Nc2ccc(Oc3ncnc4cc(N(C)C)ccc34)cc2)cn1 a recorded bioavailability greater than or equal to 7%? T

Has Cc1ccc(CNC(=O)Nc2ccc(Oc3ncnc4cc(N(C)C)ccc34)cc2)cn1 a recorded bioavailability greater than or equal to 7%? T

Has CN(C)c1ccc2c(Oc3ccc(NC(=O)NCc4ccc(C(F)(F)F)nc4)cc3)ncnc2c1.CS(=O)(=O)O a recorded bioavailability greater than or equal to 7%? T

Has COc1ccc(CNC(=O)Nc2ccc(Oc3ncnc4cc(N(C)C)ccc34)cc2)cc1 a recorded bioavailability greater than or equal to 7%? F

Has CN(C)c1ccc2c(Oc3ccc(NC(=O)NCc4ccc(F)cc4)cc3)ncnc2c1 a recorded bioavailability greater than or equal to 7%? T

Has COc1ccc(NC(=O)Nc2ccc(Oc3ncnc4cc(N(C)C)ccc34)cc2)cc1 a recorded bioavailability greater than or equal to 7%? F

---

- TARGET: Aurora kinase B (Homo sapiens)
- ASSAY PROTOCOL: Inhibition of human recombinant full length GST-AURKB using tetra(-LRRASLG) peptide as substrate at 0.1 uM incubated for 20 mins by ATP Kinase Glo assay
- Type: biochemical
- DETAILS: Sf9
Field: inhibition. Provide a value for each of the compounds that follow.
Express your answer in %, writing the number without its unit.

Entry under test: COc1ccc(NC(=O)Nc2ccc(Oc3ncnc4cc(N(C)C)ccc34)cc2)cc1Cl . Its inhibition was 44

Entry under test: COc1ccc(Cl)cc1NC(=O)Nc1ccc(Oc2ncnc3cc(N(C)C)ccc23)cc1 . Its inhibition was 41

Entry under test: CN(C)c1ccc2c(Oc3ccc(NC(=O)NCc4ccccc4)cc3)ncnc2c1 . Its inhibition was 7

Entry under test: CN(C)c1ccc2c(Oc3ccc(NC(=O)Nc4cccc(Cl)c4)cc3)ncnc2c1 . Its inhibition was 82

Entry under test: O=C(Nc1cccc(Cl)c1)Nc1ncc(CCNc2ncnc3cc(F)ccc23)s1 . Its inhibition was 83

Entry under test: COc1ccc2c(NCCc3cnc(NC(=O)Nc4cccc(Cl)c4)s3)ncnc2c1 . Its inhibition was 89

Entry under test: O=C(Nc1ccccc1)Nc1ccc(Oc2ncnc3cc(N4CCCC4)ccc23)cc1 . Its inhibition was 43

Entry under test: COc1ccc(NC(=O)Nc2ccc(Oc3ncnc4cc(N(C)C)ccc34)cc2)cc1 . Its inhibition was 34

Entry under test: COc1cccc(NC(=O)Nc2ccc(Oc3ncnc4cc(N(C)C)ccc34)cc2)c1 . Its inhibition was 79

Entry under test: CN(C)c1ccc2c(Oc3ccc(NC(=O)NCc4ccc(F)cc4)cc3)ncnc2c1 . Its inhibition was 27

Entry under test: COc1ccc(CNC(=O)Nc2ccc(Oc3ncnc4cc(N(C)C)ccc34)cc2)cn1 . Its inhibition was 18

Entry under test: Cc1ccc(CNC(=O)Nc2ccc(Oc3ncnc4cc(N(C)C)ccc34)cc2)cn1 . Its inhibition was 9

Entry under test: CN(C)c1ccc2c(Oc3ccc(NC(=O)Nc4cccc(C(F)(F)F)c4)cc3)ncnc2c1 . Its inhibition was 60

Entry under test: CN(C)c1ccc2c(Oc3ccc(NC(=O)Nc4ccc(Cl)cc4)cc3)ncnc2c1 . Its inhibition was 50

Entry under test: Nc1ccc2c(Oc3ccc(NC(=O)Nc4ccccc4)cc3)ncnc2c1 . Its inhibition was 74

Entry under test: COc1ccc(CNC(=O)Nc2ccc(Oc3ncnc4cc(N(C)C)ccc34)cc2)cc1 . Its inhibition was 29

Entry under test: CN(C)c1ccc2c(Oc3ccc(NC(=O)NCc4ccc(S(N)(=O)=O)cc4)cc3)ncnc2c1 . Its inhibition was 62

Entry under test: CN(C)c1ccc2c(Oc3ccc(NC(=O)Nc4ccccc4Cl)cc3)ncnc2c1 . Its inhibition was 79

Entry under test: CN(C)c1ccc2c(Oc3ccc(NC(=O)NCc4c(F)c(F)c(F)c(F)c4F)cc3)ncnc2c1 . Its inhibition was 34

Entry under test: O=C(Nc1ccccc1)Nc1ccc(Oc2ncnc3cc(F)ccc23)cc1 . Its inhibition was 27

---

- ASSAY PROTOCOL: Dose normalized Cmax in Sprague-Dawley rat at 20 to 25 mg/kg, po measured up to 24 hrs by LC-MS/MS analysis
- Format: ADME, organism-based
- DETAILS: in vivo, dose 20-25 mg/kg
Field: Cmax/dose. Provide a value for each of the compounds that follow.
Express your answer in ng/mL, writing the number without its unit.

Entry under test: CN(C)c1ccc2c(Oc3ccc(NC(=O)NCc4ccc(F)cc4)cc3)ncnc2c1 . Its Cmax/dose was 56

Entry under test: CN(C)c1ccc2c(Oc3ccc(NC(=O)NCc4ccc(C(F)(F)F)nc4)cc3)ncnc2c1.CS(=O)(=O)O . Its Cmax/dose was 68

Entry under test: COc1ccc(NC(=O)Nc2ccc(Oc3ncnc4cc(N(C)C)ccc34)cc2)cc1 . Its Cmax/dose was 10.6

Entry under test: COc1ccc(CNC(=O)Nc2ccc(Oc3ncnc4cc(N(C)C)ccc34)cc2)cc1 . Its Cmax/dose was 1.7

Entry under test: CN(C)c1ccc2c(Oc3ccc(NC(=O)NCc4ccc(C(F)(F)F)nc4)cc3)ncnc2c1 . Its Cmax/dose was 24

Entry under test: Cc1ccc(CNC(=O)Nc2ccc(Oc3ncnc4cc(N(C)C)ccc34)cc2)cn1 . Its Cmax/dose was 21

Entry under test: COc1ccc(CNC(=O)Nc2ccc(Oc3ncnc4cc(N(C)C)ccc34)cc2)cn1 . Its Cmax/dose was 35

---

- ASSAY PROTOCOL: Half life in Sprague-Dawley rat at 20 to 25 mg/kg, po measured up to 24 hrs by LC-MS/MS analysis
- Assay type: ADME, organism-based
- DETAILS: in vivo, dose 20-25 mg/kg
PROPERTY LABEL: half-life
Please answer using a numeric value trailed by its unit.

Entry under test: Cc1ccc(CNC(=O)Nc2ccc(Oc3ncnc4cc(N(C)C)ccc34)cc2)cn1 . Its half-life was 144 min

Entry under test: COc1ccc(CNC(=O)Nc2ccc(Oc3ncnc4cc(N(C)C)ccc34)cc2)cc1 . Its half-life was 402 min

Entry under test: CN(C)c1ccc2c(Oc3ccc(NC(=O)NCc4ccc(C(F)(F)F)nc4)cc3)ncnc2c1.CS(=O)(=O)O . Its half-life was 696 min

Entry under test: COc1ccc(NC(=O)Nc2ccc(Oc3ncnc4cc(N(C)C)ccc34)cc2)cc1 . Its half-life was 240 min

Entry under test: COc1ccc(CNC(=O)Nc2ccc(Oc3ncnc4cc(N(C)C)ccc34)cc2)cn1 . Its half-life was 288 min

Entry under test: CN(C)c1ccc2c(Oc3ccc(NC(=O)NCc4ccc(C(F)(F)F)nc4)cc3)ncnc2c1 . Its half-life was 522 min

Entry under test: CN(C)c1ccc2c(Oc3ccc(NC(=O)NCc4ccc(F)cc4)cc3)ncnc2c1 . Its half-life was 1450 min

---

- TARGET: Macrophage colony-stimulating factor 1 receptor (Homo sapiens)
- Sequence (P07333 whole entry, the tested form may be a part): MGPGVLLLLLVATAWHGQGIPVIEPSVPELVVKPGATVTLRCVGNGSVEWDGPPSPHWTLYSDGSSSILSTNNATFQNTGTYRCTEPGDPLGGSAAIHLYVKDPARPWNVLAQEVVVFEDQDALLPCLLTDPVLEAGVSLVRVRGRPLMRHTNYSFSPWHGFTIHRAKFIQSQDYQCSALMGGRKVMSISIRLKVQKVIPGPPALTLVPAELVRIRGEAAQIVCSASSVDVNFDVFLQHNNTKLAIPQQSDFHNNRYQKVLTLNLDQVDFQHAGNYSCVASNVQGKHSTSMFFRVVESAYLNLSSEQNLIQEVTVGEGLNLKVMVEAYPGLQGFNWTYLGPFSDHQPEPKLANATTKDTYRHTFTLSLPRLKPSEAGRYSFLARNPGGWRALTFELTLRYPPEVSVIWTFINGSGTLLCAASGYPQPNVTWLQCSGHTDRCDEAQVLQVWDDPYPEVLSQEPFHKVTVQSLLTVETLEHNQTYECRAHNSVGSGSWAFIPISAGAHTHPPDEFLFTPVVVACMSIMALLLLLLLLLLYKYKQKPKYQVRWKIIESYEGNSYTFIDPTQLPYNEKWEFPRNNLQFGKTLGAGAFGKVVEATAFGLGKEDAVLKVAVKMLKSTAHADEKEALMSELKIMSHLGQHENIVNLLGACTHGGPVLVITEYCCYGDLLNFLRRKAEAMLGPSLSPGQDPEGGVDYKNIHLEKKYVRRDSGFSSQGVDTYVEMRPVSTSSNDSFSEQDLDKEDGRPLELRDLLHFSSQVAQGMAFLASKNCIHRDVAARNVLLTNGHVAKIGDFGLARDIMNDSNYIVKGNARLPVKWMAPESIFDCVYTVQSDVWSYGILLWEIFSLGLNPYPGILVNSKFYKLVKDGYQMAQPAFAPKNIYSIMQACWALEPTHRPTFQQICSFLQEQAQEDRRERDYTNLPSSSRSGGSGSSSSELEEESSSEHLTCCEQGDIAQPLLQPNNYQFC
- ASSAY PROTOCOL: Inhibition of human recombinant GST-CSF1R (residues L534 to C972) expressed in Sf9 insect cells using poly(Glu,Tyr) as substrate incubated for 20 mins by ATP Kinase Glo assay
PROPERTY LABEL: pIC50
Note: pIC50 values are expressed as the negative base-10 logarithm of concentration in M.

Entry under test: COc1ccc(CNC(=O)Nc2ccc(Oc3ncnc4cc(N(C)C)ccc34)cc2)cc1 . Its pIC50 was 7.89

Entry under test: CN(C)c1ccc2c(Oc3ccc(NC(=O)NCc4cccnc4)cc3)ncnc2c1 . Its pIC50 was 7.10

Entry under test: CN(C)c1ccc2c(Oc3ccc(NC(=O)NCCc4ccccc4)cc3)ncnc2c1 . Its pIC50 was 7.81

Entry under test: COc1ccc(CNC(=O)Nc2ccc(Oc3ncnc4cc(N(C)C)ccc34)cc2)cc1OC . Its pIC50 was 7.08

Entry under test: CNc1ccc2c(Oc3ccc(NC(=O)Nc4ccccc4)cc3)ncnc2c1 . Its pIC50 was 7.36

Entry under test: Nc1ccc2c(Oc3ccc(NC(=O)Nc4ccccc4)cc3)ncnc2c1 . Its pIC50 was 7.24

Entry under test: O=C(Nc1ccccc1)Nc1ccc(Oc2ncnc3cc(F)ccc23)cc1 . Its pIC50 was 6.12

Entry under test: CN(C)c1ccc2c(Oc3ccc(NC(=O)Nc4ccccc4Cl)cc3)ncnc2c1 . Its pIC50 was 7.81

Entry under test: O=C(Nc1ccccc1)Nc1ccc(Oc2ncnc3cc(N4CCCC4)ccc23)cc1 . Its pIC50 was 7.20

Entry under test: COc1ccc2c(Nc3ccc(NC(=O)Nc4ccccc4)cc3)ncnc2c1 . Its pIC50 was 6.91

Entry under test: COc1ccc2c(Oc3ccc(NC(=O)Nc4ccccc4)cc3)ncnc2c1 . Its pIC50 was 7.12

Entry under test: CN(C)c1ccc2c(Oc3ccc(NC(=O)NCc4nccs4)cc3)ncnc2c1 . Its pIC50 was 7.62

Entry under test: CN(C)c1ccc2c(Oc3ccc(NC(=O)NCc4ccc(F)cc4)cc3)ncnc2c1 . Its pIC50 was 8.08

Entry under test: CN(C)c1ccc2c(Oc3ccc(NC(=O)Nc4ccc(C(F)(F)F)cc4)cc3)ncnc2c1 . Its pIC50 was 7.19

Entry under test: CN(C)c1ccc2ncnc(Oc3ccc(NC(=O)Nc4ccccc4)cc3)c2c1 . Its pIC50 was 7.39

Entry under test: CN(C)c1ccc2c(Oc3ccc(NC(=O)NCc4ccccc4)cc3)ncnc2c1 . Its pIC50 was 7.79

Entry under test: COc1ccccc1NC(=O)Nc1ccc(Oc2ncnc3cc(N(C)C)ccc23)cc1 . Its pIC50 was 7.52

Entry under test: CN(C)CCCOc1ccc2c(NCCc3cnc(NC(=O)Nc4cccc(Cl)c4)s3)ncnc2c1 . Its pIC50 was 7.72

Entry under test: CN(C)c1ccc2c(Oc3ccc(NC(=O)Nc4ccccc4)cc3)ncnc2c1 . Its pIC50 was 7.68

Entry under test: COc1cccc(NC(=O)Nc2ccc(Oc3ncnc4cc(N(C)C)ccc34)cc2)c1 . Its pIC50 was 7.94
